FYI, the data here is from ChEMBL document CHEMBL1139590.

experimental.target: S-methyl-5'-thioadenosine phosphorylase (Homo sapiens) (UniProt Q13126)
Sequence (Q13126 whole entry): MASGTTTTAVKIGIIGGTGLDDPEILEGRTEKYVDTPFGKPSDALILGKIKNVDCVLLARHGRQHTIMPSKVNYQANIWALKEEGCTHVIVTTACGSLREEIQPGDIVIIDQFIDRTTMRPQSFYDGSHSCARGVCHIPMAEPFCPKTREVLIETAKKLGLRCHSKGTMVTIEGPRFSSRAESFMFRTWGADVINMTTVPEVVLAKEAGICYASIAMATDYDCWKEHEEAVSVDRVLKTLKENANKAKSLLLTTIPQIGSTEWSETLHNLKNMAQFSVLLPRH
test.protocol: Ratio of Kcat to Km against human Methylthioadenosine phosphorylase
measured.quantity: Ratio (µM⁻¹ s⁻¹)

compound	result.number
Nc1ncnc2c1ncn2[C@@H]1O[C@H](CCc2ccccc2)[C@@H](O)[C@H]1O	3.5
CSC[C@@H]1C[C@@H](O)[C@H](n2cnc3c(N)ncnc32)O1	0.001
Cc1ccccc1SC[C@H]1O[C@@H](n2cnc3c(N)ncnc32)[C@H](O)[C@@H]1O	0.03
Nc1ncnc2c1ncn2[C@@H]1O[C@H](CSc2ccncc2)[C@@H](O)[C@H]1O	0.26
CSC[C@H]1O[C@@H](n2cnc3c(N)ncnc32)[C@H](N)[C@@H]1O	0.022
Nc1ncnc2c1ncn2[C@@H]1O[C@H](CSc2ccc3ccccc3n2)[C@@H](O)[C@H]1O	0.46
CC(C)(C)SC[C@H]1O[C@@H](n2cnc3c(N)ncnc32)[C@H](O)[C@@H]1O	0.05
Nc1ncnc2c1ncn2[C@@H]1O[C@H](CSC2CCCCC2)[C@@H](O)[C@H]1O	0.45
COc1ccc(SC[C@H]2O[C@@H](n3cnc4c(N)ncnc43)[C@H](O)[C@@H]2O)cc1	0.11
CSC[C@H]1O[C@@H](n2cnc3c(N)ncnc32)C(N=[N+]=[N-])[C@@H]1O (some centres undefined)	1.1e-05
Nc1ncnc2c1ncn2[C@@H]1O[C@H](CSCCO)[C@@H](O)[C@H]1O	0.058
CC(C)CCSC[C@H]1O[C@@H](n2cnc3c(N)ncnc32)[C@H](O)[C@@H]1O	1.96
Nc1ncnc2c1ncn2[C@@H]1O[C@H](CSc2ccccn2)[C@@H](O)[C@H]1O	0.66
CCC(C)CSC[C@H]1O[C@@H](n2cnc3c(N)ncnc32)[C@H](O)[C@@H]1O (some centres undefined)	0.84
Nc1ncnc2c1ncn2[C@@H]1O[C@H](CSc2nccs2)[C@@H](O)[C@H]1O	0.73
C[C@H]1O[C@@H](n2cnc3c(N)ncnc32)[C@H](O)[C@@H]1O	0.8
Cc1cccc(SC[C@H]2O[C@@H](n3cnc4c(N)ncnc43)[C@H](O)[C@@H]2O)c1	1.2
Nc1ncnc2c1ncn2[C@@H]1O[C@H](CNc2ccccc2)[C@@H](O)[C@H]1O	0.24
CCCCSC[C@H]1O[C@@H](n2cnc3c(N)ncnc32)[C@H](O)[C@@H]1O	1.48
